// data source = the supplement of paper PMC10477900

Test system: HCT116
Experiment: viability inhibition vs untreated; higher = more cytotoxic
Settings: genotype: MTA1-KO; 400 nM; 72 h
Structures can show the parent of a compound that is named as a salt.

compound | viability inhibition
NCCCC(N)(C(=O)O)C(F)F (stereo not given) [Eflornithine hydrochloride Monohydrate] | -24%
NS(=O)(=O)c1ccc(S(=O)(=O)Nc2cccc3c(Cl)c[nH]c23)cc1 [Indisulam] | 59.8%
CC(N)=NCc1cccc(CN)c1 [1400W dihydrochloride] | -3.44%
CNc1cc(-c2cccc(Cl)c2Cl)nc(N)n1 [TH287 hydrochloride] | 23%
NC(N)=NCCC[C@H](N)C(=O)O [L-arginine monohydrochloride] | -11.5%

----------
Test system: HCT116
Assay: viability inhibition vs untreated; higher = more cytotoxic
Conditions: genotype: MTA1-KO; 400 nM; 72 h
Structures can show the parent of a compound that is named as a salt.

molecule | viability inhibition / %
O=C(Nc1cccc(Nc2ncc(Br)c(NCCc3cnc[nH]3)n2)c1)N1CCCC1 | 22.8
Nc1cc(C(F)(F)F)c(-c2nc(N3CCOCC3)nc(N3CCOCC3)n2)cn1 | 49.3
Nc1nc2[nH]cc(CCc3ccc(C(=O)N[C@@H](CCC(=O)O)C(=O)O)cc3)c2c(=O)[nH]1 [Pemetrexed disodium] | 17.8
CO[C@H]1C[C@@H]2CC[C@@H](C)[C@@](O)(O2)C(=O)C(=O)N2CCCC[C@H]2C(=O)O[C@H]([C@H](C)C[C@@H]2CC[C@H](n3cnnn3)[C@H](OC)C2)CC(=O)[C@H](C)/C=C(\C)[C@@H](O)[C@@H](OC)C(=O)[C@H](C)C[C@H](C)/C=C/C=C/C=C/1C | 2.56
c1ccc2c(CCNc3ccc(Nc4ccncc4)cc3)c[nH]c2c1 | 13.6
NC(N)=NC(N)=NCCc1ccccc1 [Phenformin hydrochloride] | -10.6
CCCC[S+]([O-])c1sc2nc(-c3cccs3)cc(-c3ccccc3)c2c1N (configuration not stated) | 5.6

----------
System: HCT116
Assay: viability inhibition vs untreated; higher = more cytotoxic
Conditions: genotype: MTA1-KO; 16 nM; 72 h
Structures can show the parent of a compound that is named as a salt.

compound | value-unit | viability inhibition
Cc1ccc2c(c1)C(=O)[C@]1(O)CCN(c3ccccc3)C1=N2 [(-)-Blebbistatin] | % | 2.62
NC(N)=NCCC[C@H](N)C(=O)O [L-arginine monohydrochloride] | % | -2.61
CC(C)n1nc(-c2cc3cc(O)ccc3[nH]2)c2c(N)ncnc21 | % | -28.4
COc1ccc(-c2ccc3ncc4c(c3c2)n(-c2ccc(N3CCNCC3)c(C(F)(F)F)c2)c(=O)n4C)cn1 | % | 3.91

----------
Reported values of viability inhibition for individual entries
Tested on: HCT116
Assay: viability inhibition vs untreated; higher = more cytotoxic
Conditions: genotype: MTA1-KO; 400 nM; 72 h
Where a name gives a salt, the structure may show the parent alone.
recorded-endpoint: viability inhibition (%)

compound | recorded-measurement
CCNC(=O)Nc1ccc(-c2nc(N3CCOC[C@@H]3C)c3c(n2)C(C)(C)S(=O)(=O)C3)cc1 [CZ415] | 23.6
C[C@]12CC[C@H]3[C@@H](CC[C@@]45O[C@@H]4C(O)=C(C#N)C[C@]35C)[C@@H]1CC[C@@H]2O [Trilostane] | -14.1
O=C(Oc1ccc([N+](=O)[O-])cc1)N1CCC(C(O)(c2ccc3c(c2)OCO3)c2ccc3c(c2)OCO3)CC1 [JZL184] | 21.9
CC(C)n1nc(-c2cc3cc(O)ccc3[nH]2)c2c(N)ncnc21 [Torkinib] | -28.2
CC(C)n1nc(-c2ccc3oc(N)nc3c2)c2c(N)ncnc21 [INK 128] | 33.7
CC(=O)c1ccc2c(c1)c1cc(C(C)=O)ccc1n2CCNC(C)C [CBL0137 hydrochloride] | 65.6
COc1ccc2[nH]c([S@@+]([O-])Cc3ncc(C)c(OC)c3C)nc2c1 [Esomeprazole Sodium] | 7.98
CC[C@H](CC#N)OC(=O)N[C@@H](C)c1cccc(NC(=O)Nc2ccc(-c3cnco3)c(OC)c2)c1 [AVN944] | 58.7

----------
Test system: HCT116
Experiment: viability inhibition vs untreated; higher = more cytotoxic
Details: genotype: MTA1-KO; 400 nM; 72 h
Structures can show the parent of a compound that is named as a salt.
Reported values of viability inhibition for individual entries
recorded-endpoint: viability inhibition (%)

compound | recorded-endpoint | recorded-measurement
CC(=O)Nc1ccc(NC(=S)NC(=O)c2ccc(C(C)(C)C)cc2)cc1 | viability inhibition | 12.8
CC(C)(O)CNc1nc(Nc2ccnc(C(F)(F)F)c2)nc(-c2cccc(C(F)(F)F)n2)n1 | viability inhibition | -17.3
Cc1nc(Nc2cnn(C3CCNCC3)c2)nc2c1N(C)C(=O)c1cc3ccccc3cc1N2C | viability inhibition | -1.32
Nc1ccccc1S(N)(=O)=O [2-Aminobenzenesulfonamide] | viability inhibition | -8.18
CC(C)CC(N)=O [Isovaleramide] | viability inhibition | -11.3
CC(C)(Sc1cc(C(C)(C)C)c(O)c(C(C)(C)C)c1)Sc1cc(C(C)(C)C)c(O)c(C(C)(C)C)c1 | viability inhibition | -1.83
Nc1nc2[nH]cc(CCc3ccc(C(=O)N[C@@H](CCC(=O)O)C(=O)O)cc3)c2c(=O)[nH]1 [Pemetrexed Disodium Hydrate] | viability inhibition | -2.35
COc1ccc(-c2ccc3c(N4CCOCC4)nc(N4C[C@@H](C)O[C@@H](C)C4)nc3n2)cc1CO | viability inhibition | 36.5
C[C@@H](C(=O)Nc1ccc(Cl)cc1)[C@H]1CC[C@@H](c2ccnc3ccc(F)cc32)CC1 | viability inhibition | 3.39
CC(C)(C)c1ccc(S(=O)(=O)NCc2ccc(C(=O)Nc3cccnc3)cc2)cc1 | viability inhibition | -8.95
S=C(N/N=C1/CCCc2cccnc21)N1CCN(c2ccccn2)CC1 | viability inhibition | 50.3
O=C(O)C[C@H](O)C[C@H](O)/C=C/c1c(C2CC2)nc2ccccc2c1-c1ccc(F)cc1 | viability inhibition | -30.7
O=C(/C=C/c1ccc2ccccc2n1)c1ccncc1 | viability inhibition | -16.3
Cc1ccc(-c2cn3c4c(sc3n2)CCCC4)cc1 [Pifithrin-β hydrobromide] | viability inhibition | -18.2
CO[C@H]1C[C@@H]2CC[C@@H](C)[C@@](O)(O2)C(=O)C(=O)N2CCCC[C@H]2C(=O)O[C@H]([C@H](C)C[C@@H]2CC[C@@H](OCCO)[C@H](OC)C2)CC(=O)[C@H](C)/C=C(\C)[C@@H](O)[C@@H](OC)C(=O)[C@H](C)C[C@H](C)/C=C/C=C/C=C/1C | viability inhibition | -24.2
Nc1nc(Cl)nc2c1ncn2[C@@H]1O[C@H](CO)[C@@H](O)[C@@H]1F | viability inhibition | 55.5

----------
System: HCT116
Assay: viability inhibition vs untreated; higher = more cytotoxic
Conditions: genotype: MTA1-KO; 400 nM; 72 h

molecule | target-of-assay | viability inhibition [%]
O=c1c2cc(O)c(O)cc2oc2cc(O)c([C@@H]3O[C@H](CO)[C@@H](O)[C@H](O)[C@H]3O)c(O)c12 | HCT116 | -11.2
Cc1ccccc1C(=O)N1CCc2cc(-c3nc(NC(=O)Cc4ccc5c(c4)OCO5)sc3C)ccc21 | HCT116 | -2.81
NS(=O)(=O)c1ccc(NC(=O)Nc2ccc(F)cc2)cc1 | HCT116 | -25.6
NNC(=O)c1ccncc1 | HCT116 | -14.4
COc1ccccc1OCC(O)CN1CCN(CC(=O)Nc2c(C)cccc2C)CC1 (stereo not drawn) [Ranolazine] | HCT116 | 8.98
COC(=O)Nc1ccc(-c2nc(N3CCOCC3)c3cnn(C4CCN(C(=O)OC)CC4)c3n2)cc1 | HCT116 | -5.74
C=C1C(=O)O[C@H]2[C@H]1CC/C(C)=C/CC[C@@]1(C)O[C@@H]21 [Parthenolide] | HCT116 | 17.3
C[C@]12CC[C@H](O)C[C@H]1CC[C@@H]1[C@@H]2CC[C@]2(C)[C@@H](c3ccc(=O)oc3)CC[C@]12O | HCT116 | 58.6

----------
Test system: HCT116
Assay: viability inhibition vs untreated; higher = more cytotoxic
Conditions: genotype: MTA1-KO; 400 nM; 72 h
Structures can show the parent of a compound that is named as a salt.
Reported values of viability inhibition for individual entries
recorded-endpoint: viability inhibition (%)

compound | value-unit | recorded-measurement
O=C(O)CCCCC(CCSCc1ccccc1)SCc1ccccc1 (stereo unspecified) | % | -22.2
COc1cccc2cc(-c3nc(C4CCC(C(=O)O)CC4)n4ncnc(N)c34)[nH]c12 (stereo unspecified) | % | 10.1
O=S(=O)(NCCSSCCNS(=O)(=O)c1cc(Cl)ccc1Cl)c1cc(Cl)ccc1Cl | % | 13.5
C=C(C)[C@H]1Cc2c(ccc3c2O[C@@H]2COc4cc(OC)c(OC)cc4[C@@H]2C3=O)O1 | % | 35.3
O=c1oc2c(O)c(O)cc3c(=O)oc4c(O)c(O)cc1c4c23 | % | -9.22
CO[C@@H](C)Cn1c(=O)n(C)c2cnc3ccc(-c4cncc(C(C)(C)O)c4)cc3c21 | % | 58.8
CO[C@H]1C[C@@H]2CC[C@@H](C)[C@@](O)(O2)C(=O)C(=O)N2CCCC[C@H]2C(=O)O[C@H]([C@H](C)C[C@@H]2CC[C@@H](OC(=O)C(C)(CO)CO)[C@H](OC)C2)CC(=O)[C@H](C)/C=C(\C)[C@@H](O)[C@@H](OC)C(=O)[C@H](C)C[C@H](C)/C=C/C=C/C=C/1C | % | 48.4
N#CCCCSC(=N)N [Kevetrin hydrochloride] | % | 12.2
NS(=O)(=O)C#Cc1ccccc1 | % | -11.6
O=c1cc(-c2ccc(O)c(O)c2)oc2cc(O)cc(O)c12 | % | -11.5
Cc1c(NC(=O)c2cc(C(N)=O)nc3cc(F)ccc23)c(C(F)(F)F)nn1Cc1ccc(C#N)cc1 | % | 82
CCc1nc(N)nc(N)c1-c1ccc(Cl)cc1 | % | -0.866
Cc1nc(Nc2ccc(F)cc2)nc(N2CCc3ccccc3C2C)c1C (stereo unspecified) [Revaprazan hydrochloride] | % | -2.29
COC(=O)N1CCN(Cc2cccc(NC(=O)Nc3ccc(C)nc3)c2F)CC1 | % | -17.5
O=C(O)c1nn(Cc2ccc(Cl)cc2Cl)c2ccccc12 | % | -12.8
CC(C)[C@]12O[C@H]1[C@@H]1O[C@]13[C@]1(O[C@H]1C[C@H]1C4=C(CC[C@@]13C)C(=O)OC4)[C@@H]2O [Triptolide] | % | 88.9
